Test system: c-Src
assay.protocol: phosphorylation enrichment, bacterial display (enrichment ratio); higher = better substrate or ligand; peptides without Tyr show the background;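 further: 11-residue human phosphosite peptides and single-mutation variants displayed on the E. coli surface, counted by deep sequencing, each peptide's frequency after selection divided by its frequency in the unselected input library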;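 further: frequency after pTyr selection over input frequency; kinase dosed for 20-30% of maximal phosphorylation in three min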
Rule: Y for phosphorylation enrichment not less than 0.5, N for anything less.

Take a look at these entries with their results.
- macromolecule.sequence: "GKMPQYLESMQ [CYB5R3_Y130_S128P]"
  answer.label: "N"
- macromolecule.sequence: "RGNMYYENSYA [EGFR_Y113]"
  answer.label: "Y"
- macromolecule.sequence: "INITIYGKTFC [EFHC1_Y177_R182C]"
  answer.label: "Y"
- macromolecule.sequence: "KSLFHYRQFSA [CPS1_Y1491_YF]"
  answer.label: "N"
- macromolecule.sequence: "VQQVIYATRAL [MYH7_Y422_G425R]"
  answer.label: "Y"

Field: next sequence
phosphorylation enrichment >= 0.5 for NPQKSYFILLY [WAS_Y83_R86L] ?
N

---

Test system: AncSZ
assay.protocol: phosphorylation enrichment, bacterial display (enrichment ratio); higher = better substrate or ligand; peptides without Tyr show the background
Cut-off 0.9 on phosphorylation enrichment, inclusive. At or above means fulfilled; below means not fulfilled.

Use these answered entries as a reference point.
- macromolecule.sequence: "KLIETYSSKNF [PLP1_Y50_F51S_YF]"
  answer.label: "not fulfilled"
- macromolecule.sequence: "DHPSEYAARQL [ANXA13_Y90_R86H]"
  answer.label: "not fulfilled"
- macromolecule.sequence: "SKKSTYRALLD [GANC_Y43_Q44R]"
  answer.label: "not fulfilled"
- macromolecule.sequence: "EPSVDYCVVKI [CAD_Y735]"
  answer.label: "fulfilled"
- macromolecule.sequence: "VVGMLYVGGLP [LAMA2_Y2886]"
  answer.label: "fulfilled"

Quick check, phosphorylation enrichment >= 0.9? GSSEGYLHMVH [NIPBL_Y247_D246G]
not fulfilled

---

target.entity: FGFR3 (UniProt P22607)
Sequence (P22607 whole entry, looked up): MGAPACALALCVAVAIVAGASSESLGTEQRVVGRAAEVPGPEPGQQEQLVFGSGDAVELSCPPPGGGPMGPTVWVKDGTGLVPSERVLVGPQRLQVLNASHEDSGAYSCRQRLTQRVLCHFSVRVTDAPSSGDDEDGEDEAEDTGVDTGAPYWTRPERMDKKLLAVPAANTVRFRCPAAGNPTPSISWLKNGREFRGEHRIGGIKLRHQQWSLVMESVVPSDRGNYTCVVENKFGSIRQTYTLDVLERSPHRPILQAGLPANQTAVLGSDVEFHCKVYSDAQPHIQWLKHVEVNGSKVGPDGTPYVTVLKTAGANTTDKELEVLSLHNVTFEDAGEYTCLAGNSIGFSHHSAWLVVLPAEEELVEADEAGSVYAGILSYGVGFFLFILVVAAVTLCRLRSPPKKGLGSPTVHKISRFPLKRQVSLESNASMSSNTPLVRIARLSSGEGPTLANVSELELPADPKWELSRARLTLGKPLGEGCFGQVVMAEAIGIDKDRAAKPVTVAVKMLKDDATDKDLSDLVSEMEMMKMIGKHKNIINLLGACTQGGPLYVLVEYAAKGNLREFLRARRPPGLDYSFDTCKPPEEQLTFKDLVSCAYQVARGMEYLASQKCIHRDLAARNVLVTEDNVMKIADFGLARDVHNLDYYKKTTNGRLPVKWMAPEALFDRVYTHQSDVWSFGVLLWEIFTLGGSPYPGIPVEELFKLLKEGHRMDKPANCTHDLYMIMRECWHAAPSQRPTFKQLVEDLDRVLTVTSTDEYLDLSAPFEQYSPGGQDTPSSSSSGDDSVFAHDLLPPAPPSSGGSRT
assay.protocol: phosphorylation enrichment, bacterial display (enrichment ratio); higher = better substrate or ligand; peptides without Tyr show the background
Think of 0.7 as a floor: if phosphorylation enrichment stands on it or above, it is satisfied; beneath it, not satisfied.

Sample answers from the record:
- macromolecule.sequence: "VRFMAYTDETF [F8_Y450]"
  answer.label: "satisfied"
- macromolecule.sequence: "DFEGLYQEGGG [TMEM159_Y159_E154D]"
  answer.label: "satisfied"
- macromolecule.sequence: "TEQDPYNSIVR [MMUT_Y364_N366S]"
  answer.label: "not satisfied"
- macromolecule.sequence: "RIFDFYSARKA [STOX1_Y858_YF]"
  answer.label: "satisfied"
- macromolecule.sequence: "WASSSYRETPS [SORBS1_Y79_R74W]"
  answer.label: "not satisfied"
- macromolecule.sequence: "LQTFRYHGLSM [PDHA1_Y289_H292L_YF]"
  answer.label: "satisfied"
- macromolecule.sequence: "NCFKFYMSDDI [ATRX_Y204_YF]"
  answer.label: "satisfied"
- macromolecule.sequence: "FQNGMYGLHQD [SGSH_Y89_H84Y_YF]"
  answer.label: "not satisfied"
- macromolecule.sequence: "MRALIYNSSTV [PLEKHA7_Y243_A248V]"
  answer.label: "not satisfied"

From here, focus on the item given below.
Dear colleague, could you confirm whether DAVCFYRMENA [NPHS2_Y195_I192V_YF] has phosphorylation enrichment at or above 0.7?
satisfied
